assayedTarget: T1, human CEA protein on the cell surface (human, UniProt P06731 35-685)
T1 sequence (looked up): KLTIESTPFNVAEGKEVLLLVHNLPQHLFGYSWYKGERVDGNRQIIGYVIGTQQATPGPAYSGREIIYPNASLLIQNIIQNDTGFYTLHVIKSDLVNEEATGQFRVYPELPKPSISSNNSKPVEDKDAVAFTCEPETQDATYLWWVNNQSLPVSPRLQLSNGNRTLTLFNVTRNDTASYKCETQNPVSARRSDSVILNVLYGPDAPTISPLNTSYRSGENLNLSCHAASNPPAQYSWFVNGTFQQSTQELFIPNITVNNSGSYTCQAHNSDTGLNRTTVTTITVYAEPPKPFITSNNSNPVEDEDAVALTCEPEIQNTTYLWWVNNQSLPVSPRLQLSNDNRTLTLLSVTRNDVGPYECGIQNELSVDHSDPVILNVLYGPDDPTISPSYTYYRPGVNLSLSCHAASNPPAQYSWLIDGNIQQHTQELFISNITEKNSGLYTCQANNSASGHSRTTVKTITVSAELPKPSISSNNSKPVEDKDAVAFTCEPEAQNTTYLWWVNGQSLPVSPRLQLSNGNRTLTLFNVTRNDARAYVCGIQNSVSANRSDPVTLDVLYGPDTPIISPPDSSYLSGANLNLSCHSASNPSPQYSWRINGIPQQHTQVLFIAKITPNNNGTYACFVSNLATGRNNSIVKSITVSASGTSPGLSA
assayProtocol: cell-based or functional assay
readoutKind: IC50 of inhibition of cell proliferation, MKN45 (with high CEA expression) (nM)
Write the answer as a number in nM, unit excluded.

Record excerpt, results attached:
Prompt: Can you look up the measured IC50 of inhibition of cell proliferation, MKN45 (with high CEA expression) of Hu63-13-2-A (DAR 3.97) (antibody, human IgG1, kappa, V domains shown, see heavy chain; linker-toxin 2-A coupled to cysteine thiols of the TCEP-reduced antibody; mean DAR 3.97 per antibody) VH: EVQLVQSGAEVKKPGASVKVSCKASGYTFTDFYMNWVRQAPGQGLEWMGDIFPKSGNTDYNRKFKDRVTMTRDTSTSTVYMELSSLRSEDTAVYYCARSGYGNYVFDYWGQGTLVTVSS VL: DIQMTQSPSSLSASVGDRVTITCRTSQDINIYLNWYQQKPGKAPKLLIYYRSGLLSGVPSRFSGSGSGTDFTLTISSLQPEDFATYYCQQGNTLPPTFGGGTKVEIKR for me?
Response: 34

Prompt: Can you look up the measured IC50 of inhibition of cell proliferation, MKN45 (with high CEA expression) of Hu103-32-2-A (DAR 6.94) (antibody, human IgG1, lambda, V domains shown, see heavy chain; linker-toxin 2-A coupled to cysteine thiols of the TCEP-reduced antibody; mean DAR 6.94 per antibody) VH: EVQLVQSGSELKKPGASVKVSCKASGYTFTTYGVIWVRQAPGQGLEWMGWINTYSGVPTYASDFKGRFVFSLDTSVSTAYLQISSLKAEDTAVYYCARKKTLTTVTPWFAYWGQGTLVTVSS VL: ELVLTQSPSASASLGASVKLTCTLSSQHSTYTIEWYQQQPEKGPRYVMELKKDGSHSTGEGIPDRFSGSSSGAERYLTISSLQSEDEADYYCGVGNTIKEQFVYVFGGGTKLTVLG for me?
Response: 3

Prompt: Can you look up the measured IC50 of inhibition of cell proliferation, MKN45 (with high CEA expression) of Hu67-14-2-A (DAR 6.41) (antibody, human IgG1, kappa, V domains shown, see heavy chain; linker-toxin 2-A coupled to cysteine thiols of the TCEP-reduced antibody; mean DAR 6.41 per antibody) VH: EVQLVQSGAEVKKPGESLKISCKGSGYSFTDYHMNWVKQMPGKGLEWMGDINPDIGGTSYNQNFKGKVTISVDKSISTAYLQWSSLKASDTAMYYCARWDFDSFANWGQGTLVTVSS VL: DIQMTQSPSSLSASVGDRVTITCRASESVSIIGTNLIHWYQQKPGKAPKLLIYHASNLETGVPSRFSGSGSGTDFTLTISSLQPEDFATYYCLQSRKIPYTFGGGTKVEIKR for me?
Response: 3.33

Prompt: Can you look up the measured IC50 of inhibition of cell proliferation, MKN45 (with high CEA expression) of Hu47-14-2-A (DAR 6.6) (antibody, human IgG1, kappa, V domains shown, see heavy chain; linker-toxin 2-A coupled to cysteine thiols of the TCEP-reduced antibody; mean DAR 6.6 per antibody) VH: EVQLVQSGSELKKPGASVKVSCKASGYTFTTYGMSWVKQAPGQGLKWMGWINTYSGVPTYASDFKGRFVFSLDTSVSTAYLQISSLKAEDTAVYYCARRGNYGRWDFDVWGQGTTVTVSS VL: EIVLTQSPDFQSVTPKEKVTITCSVSSTISSSNLHWYQQKPDQSPKPLIYGTSNLASGVPSRFSGSGSGTDYTLTINSLEAEDAATYYCQQWSIYPLTFGQGTKLEIKR for me?
Response: 6.58

Prompt: Can you look up the measured IC50 of inhibition of cell proliferation, MKN45 (with high CEA expression) of Hu63-13-2-A (DAR 6.29) (antibody, human IgG1, kappa, V domains shown, see heavy chain; linker-toxin 2-A coupled to cysteine thiols of the TCEP-reduced antibody; mean DAR 6.29 per antibody) VH: EVQLVQSGAEVKKPGASVKVSCKASGYTFTDFYMNWVRQAPGQGLEWMGDIFPKSGNTDYNRKFKDRVTMTRDTSTSTVYMELSSLRSEDTAVYYCARSGYGNYVFDYWGQGTLVTVSS VL: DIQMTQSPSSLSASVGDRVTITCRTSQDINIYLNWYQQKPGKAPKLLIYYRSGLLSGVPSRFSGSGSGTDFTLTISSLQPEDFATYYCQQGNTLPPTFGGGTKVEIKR for me?
Response: 3.93

Prompt: Can you look up the measured IC50 of inhibition of cell proliferation, MKN45 (with high CEA expression) of Hu67-14-2-A (DAR 4.28) (antibody, human IgG1, kappa, V domains shown, see heavy chain; linker-toxin 2-A coupled to cysteine thiols of the TCEP-reduced antibody; mean DAR 4.28 per antibody) VH: EVQLVQSGAEVKKPGESLKISCKGSGYSFTDYHMNWVKQMPGKGLEWMGDINPDIGGTSYNQNFKGKVTISVDKSISTAYLQWSSLKASDTAMYYCARWDFDSFANWGQGTLVTVSS VL: DIQMTQSPSSLSASVGDRVTITCRASESVSIIGTNLIHWYQQKPGKAPKLLIYHASNLETGVPSRFSGSGSGTDFTLTISSLQPEDFATYYCLQSRKIPYTFGGGTKVEIKR for me?
Response: 9.39

Switching to the query record.
Prompt: Can you look up the measured IC50 of inhibition of cell proliferation, MKN45 (with high CEA expression) of Hu103-32-2-A (DAR 4.8) (antibody, human IgG1, lambda, V domains shown, see heavy chain; linker-toxin 2-A coupled to cysteine thiols of the TCEP-reduced antibody; mean DAR 4.8 per antibody) VH: EVQLVQSGSELKKPGASVKVSCKASGYTFTTYGVIWVRQAPGQGLEWMGWINTYSGVPTYASDFKGRFVFSLDTSVSTAYLQISSLKAEDTAVYYCARKKTLTTVTPWFAYWGQGTLVTVSS VL: ELVLTQSPSASASLGASVKLTCTLSSQHSTYTIEWYQQQPEKGPRYVMELKKDGSHSTGEGIPDRFSGSSSGAERYLTISSLQSEDEADYYCGVGNTIKEQFVYVFGGGTKLTVLG for me?
Response: 2.86
